Provide the reported IC50 of each item.
- assayed-system: H1047R PIK3CA enzyme (Homo sapiens, UniProt P42336, H1047R)
- Sequence (P42336 whole entry H1047R): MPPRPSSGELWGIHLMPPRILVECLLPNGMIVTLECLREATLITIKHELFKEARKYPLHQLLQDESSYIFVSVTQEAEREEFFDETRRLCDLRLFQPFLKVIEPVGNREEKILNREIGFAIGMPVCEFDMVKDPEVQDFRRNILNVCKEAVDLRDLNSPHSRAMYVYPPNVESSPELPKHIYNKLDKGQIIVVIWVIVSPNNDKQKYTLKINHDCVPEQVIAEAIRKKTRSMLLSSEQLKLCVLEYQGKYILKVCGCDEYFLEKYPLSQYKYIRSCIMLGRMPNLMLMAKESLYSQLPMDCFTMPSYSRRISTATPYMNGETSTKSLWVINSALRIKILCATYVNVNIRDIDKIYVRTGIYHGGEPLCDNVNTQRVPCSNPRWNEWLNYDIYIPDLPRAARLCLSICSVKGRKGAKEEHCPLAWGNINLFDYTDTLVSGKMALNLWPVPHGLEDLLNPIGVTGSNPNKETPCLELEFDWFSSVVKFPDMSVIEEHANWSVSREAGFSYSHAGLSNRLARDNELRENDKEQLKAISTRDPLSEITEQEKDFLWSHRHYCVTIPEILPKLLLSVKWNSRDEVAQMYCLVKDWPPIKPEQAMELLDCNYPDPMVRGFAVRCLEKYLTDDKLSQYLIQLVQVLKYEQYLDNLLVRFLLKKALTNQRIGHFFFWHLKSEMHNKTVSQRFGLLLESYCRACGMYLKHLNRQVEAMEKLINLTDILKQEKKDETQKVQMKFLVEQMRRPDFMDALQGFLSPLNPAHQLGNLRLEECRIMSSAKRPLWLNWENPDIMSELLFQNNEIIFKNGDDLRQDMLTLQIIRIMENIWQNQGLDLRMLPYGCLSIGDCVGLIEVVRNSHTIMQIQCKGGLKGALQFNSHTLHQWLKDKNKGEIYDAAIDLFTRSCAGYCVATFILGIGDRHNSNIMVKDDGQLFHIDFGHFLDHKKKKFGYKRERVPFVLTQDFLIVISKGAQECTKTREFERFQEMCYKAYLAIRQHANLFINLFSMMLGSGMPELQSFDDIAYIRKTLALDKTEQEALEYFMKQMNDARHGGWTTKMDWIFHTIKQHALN
- Sequence (P27986 whole entry partner): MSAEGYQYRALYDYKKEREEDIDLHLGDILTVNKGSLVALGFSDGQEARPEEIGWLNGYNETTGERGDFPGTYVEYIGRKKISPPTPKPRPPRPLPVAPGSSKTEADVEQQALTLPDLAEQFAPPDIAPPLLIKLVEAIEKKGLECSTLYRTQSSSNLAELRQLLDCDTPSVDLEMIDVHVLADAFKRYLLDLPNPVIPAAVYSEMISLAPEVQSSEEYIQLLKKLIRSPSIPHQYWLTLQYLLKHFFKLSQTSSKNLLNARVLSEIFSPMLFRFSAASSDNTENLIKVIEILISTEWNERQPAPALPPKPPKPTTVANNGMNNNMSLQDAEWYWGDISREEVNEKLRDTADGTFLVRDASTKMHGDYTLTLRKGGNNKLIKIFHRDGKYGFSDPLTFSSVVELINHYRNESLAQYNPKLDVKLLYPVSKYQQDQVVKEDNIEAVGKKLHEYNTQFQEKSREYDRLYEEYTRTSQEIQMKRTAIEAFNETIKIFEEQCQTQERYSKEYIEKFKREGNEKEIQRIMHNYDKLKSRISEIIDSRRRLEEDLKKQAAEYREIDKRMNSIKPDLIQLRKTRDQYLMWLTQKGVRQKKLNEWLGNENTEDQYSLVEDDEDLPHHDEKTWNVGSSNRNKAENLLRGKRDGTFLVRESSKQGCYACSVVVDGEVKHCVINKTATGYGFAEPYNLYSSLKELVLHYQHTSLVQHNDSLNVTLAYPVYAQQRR
- procedure-summary: ADP-Glo Biochemical PIK3CA Kinase Assay

Any idea what its IC50 is? The compound is Cc1ccccc1Nc1ncc(C(=O)NC2CS(=O)(=O)C2)cc1NC(=O)c1nsc2ccccc12 0.1 to 0.5 µM

Given Cc1ccccc1Nc1ncc(C(=O)N[C@H]2C[C@@H](O)C2)cc1NC(=O)c1csc2ccccc12 , state its recorded IC50. ≤ 0.1 µM

Fill in the blank: the reported IC50 of Cc1ccccc1Nc1ncc(-c2cnn(C)c2)cc1NC(=O)c1csc2ccccc12 is ____. 0.1 to 0.5 µM

Name the recorded IC50 for Cc1ccccc1Nc1ncc(CNS(=O)(=O)c2ccccc2)cc1NC(=O)c1cc(F)cc(C(F)(F)F)c1 . 0.1 to 0.5 µM

Record request: IC50 value, item Cc1ccccc1Nc1ncc(C(=O)NC2CS(=O)(=O)C2)cc1NC(=O)c1cncc2ccccc12 10 to 100 µM

Fill blank: measured IC50 of the compound Cc1ccccc1N[C@H]1CCN(C(=O)C2(O)CC2)C[C@@H]1C(=O)Nc1cc(F)cc(C(F)(F)F)c1 (racemic) is ____. 10 to 100 µM

Returns the measured IC50 for the input compound. Input: Cc1ccccc1Nc1ncc(-c2cccc(S(N)(=O)=O)c2)cc1NC(=O)c1cc(F)cc(C(F)(F)F)c1 0.1 to 0.5 µM

Any idea what its IC50 is? The compound is Cc1ccccc1Nc1ncc(-c2cnn(C)c2)cc1NC(=O)c1ccc(OC(F)(F)F)cc1 10 to 100 µM

Reported IC50 for Cc1ccccc1Nc1ncc(C(=O)N[C@@H]2CC(=O)N(C)C2)cc1NC(=O)c1csc2ccccc12 (racemic) : what is it? 0.1 to 0.5 µM

# input compound: Cc1ccccc1Nc1ncc(C(=O)NCc2cccnc2)cc1NC(=O)c1csc2ccccc12 ; wanted: its IC50 0.1 to 0.5 µM

Looking for the measured IC50 of CNC(=O)c1cnc(Nc2ccccc2C)c(NC(=O)c2csc3ncccc23)c1 , can you help? 10 to 100 µM

Which IC50 is listed for CNC(=O)c1cnc(-n2c(=O)ccc3ccccc32)c(NC(=O)c2cc(F)cc(C(F)(F)F)c2)c1 ? 10 to 100 µM

Report IC50 for CNC(=O)c1cnc(Nc2ccccc2C)c(NC(=O)c2ccc3ncccc3c2)c1 please. 10 to 100 µM

Requested read-out: IC50. Entry: Cc1ccccc1Nc1ncc(C(=O)NC2CS(=O)(=O)C2)cc1NC(=O)c1cc(F)cc(C(F)(F)F)c1 ≤ 0.1 µM

For the compound CNC(=O)c1cnc(Nc2cccc(C)c2)c(NC(=O)c2cc(F)cc(C(F)(F)F)c2)c1 , what IC50 is on record? 1 to 10 µM

# input compound: Cc1ccccc1Nc1ncc(NC(=O)CC#N)cc1NC(=O)c1cc(F)cc(C(F)(F)F)c1 ; wanted: its IC50 1 to 10 µM

Give the measured IC50 of Cc1ccccc1Nc1ncc(-c2cnn(C)c2)cc1NC(=O)c1ccccc1OC(F)(F)F . 10 to 100 µM

What IC50 value was documented for this compound, CNC(=O)c1cnc(Nc2ccccc2C)c(NC(=O)c2ccnc(C(F)(F)F)c2)c1 ? 10 to 100 µM

What value of IC50 has been reported for the following compound? CNC(=O)c1cnc(Nc2ccc(OC)cc2)c(NC(=O)c2cc(F)cc(C(F)(F)F)c2)c1 10 to 100 µM

Need IC50 of Cc1ccccc1Nc1ncc(C(=O)NCC2CS(=O)(=O)C2)cc1NC(=O)c1csc2ccccc12 , thanks. 0.1 to 0.5 µM

// query IC50 value for entry Cc1ccccc1Nc1cc(=O)n(CC(=O)O)cc1NC(=O)c1csc2ccccc12 10 to 100 µM

Record request: IC50 value, item Cc1ccccc1Nc1ncc(C(=O)NCc2ccnn2C)cc1NC(=O)c1cc(F)cc(C(F)(F)F)c1 0.1 to 0.5 µM

Find the recorded IC50 belonging to COc1cc(F)cc(C(=O)Nc2cc(-c3cnn(C)c3)cnc2Nc2ccccc2C)c1 and report it. 10 to 100 µM

Field request: IC50 | item: Cc1ccccc1Nc1ncc(-c2ccccc2C#N)cc1NC(=O)c1cc(F)cc(C(F)(F)F)c1 0.5 to 1 µM

What IC50 value was documented for this compound, Cc1ccccc1Nc1ncc(N2CCN(C(=O)OC(C)(C)C)CC2)cc1NC(=O)c1cc(F)cc(C(F)(F)F)c1 ? 1 to 10 µM

What value of measured IC50 is listed for Cc1ccccc1Nc1ncc(NCC(=O)O)cc1NC(=O)c1cc(F)cc(C(F)(F)F)c1 ? 1 to 10 µM

Would you mind telling me what IC50 value was observed for CC(=O)N1CC(NC(=O)c2cnc(N3CCOc4ccccc43)c(NC(=O)c3cc(F)cc(C(F)(F)F)c3)c2)C1 ? 0.5 to 1 µM

Reference source: patent US20250090540A1
